Hey, just so you know, these numbers are from patent US12357642B2.

MEASUREMENT_NOTES: Pharmacokinetics of methotrexate in minipig plasma after subcutaneous injection with autoinjector or needle/syringe
CONDITION_LABEL: female, Gottingen, minipig, plasma, sc, […], T½; Auto injector, Dose Level 12.5; Mean
MEASURED_QUANTITY: half-life (h)
State the answer as a number, implicitly in h.

Enquiry: Which half-life is reported for this compound? CN(Cc1cnc2nc(N)nc(N)c2n1)c1ccc(C(=O)N[C@@H](CCC(=O)O)C(=O)O)cc1 [Methotrexate]
Return: 3.71

###

MEASUREMENT_NOTES: Pharmacokinetics of methotrexate in minipig plasma after subcutaneous injection with autoinjector or needle/syringe
CONDITION_LABEL: male, Gottingen, minipig, plasma, sc, 12.5 mg, AUC(0-t), Male; Autoinjector, Day 1; individual animals
MEASURED_QUANTITY: AUC(0-t)

Enquiry: Given the molecule CN(Cc1cnc2nc(N)nc(N)c2n1)c1ccc(C(=O)N[C@@H](CCC(=O)O)C(=O)O)cc1 [Methotrexate] , what is its reported AUC(0-t)?
Return: 1900 ng·h/mL
